Value source: PubChem BioAssay AID485349

Assay: qHTS Assay for Identifying a Potential Treatment of Ataxia-Telangiectasia; also: nearly all actives have a fitted effect of over 45% in size
Details: F2112 A-T fibroblasts, KAP-1 phosphorylation AlphaLISA, neocarzinostatin DNA damage 30 min before lysis; series mostly up to 57.5 µM
Out of some 320,000 compounds screened, about 620 (0.19%) were called active. Calls follow the shape of the dose curve; as a rule, active = well fitted activation curve with a large enough effect; inconclusive = small, poorly fitted or top-dose-only effect; inactive = no such curve, though single readings can be large or run the other way. The full list was thinned out, with actives kept by preference.
Possible outcomes: active, inactive

1) CC[C@]1(C(=O)OC)[C@H]2C(=O)N(Cc3ccccc3)C(=O)[C@H]2[C@H]2CN=C(SCc3ccc(Cl)cc3)N21 :: inactive
2) Cc1ccc(S(=O)(=O)N2CCN(C)CC2)cc1C(=O)NC1CCCCC1 :: inactive
3) CN(Cc1ccccc1)C(=O)COC(=O)/C=C/c1ccc2c(c1)OCO2 :: inactive
4) O=C(CSc1cccc[n+]1[O-])c1ccc(Cl)cc1 :: inactive
5) CC(C)(C)c1cc2cccnc2n1Cc1ccccc1 :: active
6) Cc1ccc(S(=O)(=O)N(C)C)cc1NC(=O)C(C)OC(=O)c1ccc2ccccc2n1 (configuration not stated) :: inactive
7) COc1ccc2sc(-c3ccc(N(C)C)cc3)c(C#CCO)c2c1 :: active
8) O=C1c2ccccc2[C@@H]2C[C@@H](O)[C@H](Nc3ccccc3Cl)CCN12 :: inactive
9) CC1CC(C)(C)n2c(O)c(N=NC(N)=S)c3cccc1c32 (configuration not stated) :: active
10) CC(=O)c1nc2ccccc2n1Cc1ccccc1 :: inactive
11) O=C(C[C@H]1C[C@H](C(=O)N2CCOCC2)[C@@]2(CCC3CCCC3)c3[nH]c4ccc(Cl)cc4c3CCN2C1=O)NCc1ccco1 :: inactive
12) CCn1nnc2cc(C(=O)Nc3ccc(C(=O)OC(C)C)cc3)ccc21 :: inactive
13) O=C1CCCN1C(=O)COc1ccc([N+](=O)[O-])cc1 :: inactive
14) OCCC1CN(Cc2cccn2-c2nccs2)CCN1CCc1ccccc1 (configuration not stated) :: inactive
15) Cc1ccc(CNC(=O)Cc2cn(C)c3ccccc23)cc1 :: inactive
16) Cc1ccc(C(=O)N/C(=C/c2cccs2)C(=O)N2CCCCC2)cc1 :: inactive
17) Cc1c(N=Nc2ccc(N(C)C)cc2)c(=O)n(-c2ccccc2)n1C :: inactive
18) O=C(NCc1ccco1)/C(=C/c1ccco1)NC(=O)c1ccccc1 :: inactive
19) CC(C)(C)c1cc2cccnc2n1Cc1cccc(F)c1 :: active
20) Cc1csc(=O)n1CC(=O)OCC(=O)N(CC(C)C)c1c(N)n(Cc2ccccc2)c(=O)[nH]c1=O :: inactive
21) C=CC(COCc1ccccc1)N(CC(=O)OC)S(=O)(=O)c1cc(Br)ccc1OC (configuration not stated) :: inactive
22) C=C(C)C(=O)O[C@H]1C/C(C)=C\C(=O)/C=C(\C)[C@H](O)[C@@H]2OC(=O)C(=C)[C@@H]21 :: active
23) CCCS(=O)(=O)Nc1ccc(-c2cn3c(n2)SCC3)cc1 :: inactive
24) COC(=O)[C@@H]1C[C@@]2(O)[C@H](O)[C@H](O)[C@H](O)C[C@H]2N1Cc1ccc(C(C)(C)C)cc1 :: inactive
25) Cc1ccc(C(=O)N/C(=C\c2ccco2)C(=O)NC2CCS(=O)(=O)C2)cc1 (configuration not stated) :: active
26) N=c1oc2ccccc2cc1C(=O)NCc1ccccc1 :: inactive
27) CCOC(=O)CCCNC(=O)COC(=O)/C=C/c1ccc2c(c1)OCO2 :: inactive
28) Cc1csc(SCC(=O)N(c2ccccc2)C(C)C)n1 :: inactive
29) O=C(NCC1CCCO1)/C(=C\c1ccco1)NC(=O)c1ccccc1 (configuration not stated) :: inactive
30) O=C(CSc1ncn[nH]1)Nc1ccc(Br)cc1Br :: inactive
31) O=C(COC(=O)c1ccc2ncsc2c1)Nc1ccc(Cl)cc1 :: inactive
32) O=C(O)c1[nH]c2ccccc2c1C(c1cccc(O)c1)c1c(C(=O)O)[nH]c2ccccc12 :: inactive
33) O=C(COC(=O)Cc1ccccc1F)NCCc1ccccc1 :: inactive
34) CN(C)CCCNC(=O)c1cc(C(=O)Cc2ccc(Cl)cc2)c[nH]1 :: inactive
35) CC[C@]12c3[nH]c4ccc(Cl)cc4c3CCN1C(=O)[C@@H](CC(=O)NCCCOC)C[C@@H]2C(=O)N1CCN(C(=O)c2ccco2)CC1 :: inactive
36) Cc1cc(C(C)(C)C)n2nc(C)c(-c3ccccc3)c2n1 :: inactive
37) O=C(C[n+]1ccc2c(c1)nnn2-c1ccccc1)c1ccc(Cl)cc1 :: active
38) O=C(CN1C(=O)CC(c2ccccc2)=Nc2ccccc21)NC1CCCCC1 :: inactive
39) O=C(Nc1nnc(C2=COCCO2)o1)c1ccc([N+](=O)[O-])s1 :: inactive
40) COc1ccc(C(F)(F)F)cc1N/C=C\c1nnnn1-c1ccc(C)cc1 :: inactive
41) O=C(COC(=O)/C=C/c1ccc2c(c1)OCO2)NC1CCS(=O)(=O)C1 (configuration not stated) :: active
42) CC[C@]1(C(=O)OC)[C@H]2C(=O)N(C)C(=O)[C@H]2[C@H]2CN(C)C(=NCc3ccccc3)N21 :: inactive
